Test system: transient receptor potential cation channel C4 beta (TRPC4), mouse
Assay: activators of mouse TRPC4 channel, confirmation, cell-based, second round, Fluo4, HEK293 TRPC4beta/mu-opioid, 1 µM (AID 2461)
Details: Fluo4 calcium fluorescence, at 1 µM
The source made the active and inactive calls.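 The calls were made as follows: active = primary screen active and over 50% activation in each of two duplicate runs; inactive = the rest.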
Possible outcomes: active, inactive

molecule=CCCN(CCC)CCCNC(=O)C1CCN(S(=O)(=O)c2cccc3nsnc23)CC1 subject_of_test="transient receptor potential cation channel C4 beta (TRPC4), mouse" classification=active
molecule="OC(CNC1CCCc2ccccc21)COc1ccc2ccccc2c1 (stereo not given)" subject_of_test="transient receptor potential cation channel C4 beta (TRPC4), mouse" classification=inactive
molecule="COc1ccc(C(CNC(=O)CN2C(=O)NC3(CCCC3)C2=O)N(C)C)cc1 (stereo not given)" subject_of_test="transient receptor potential cation channel C4 beta (TRPC4), mouse" classification=inactive
molecule=CCN1CCN(c2ccc(S(=O)(=O)N3CCCCC3)cc2NC(=O)c2cccc(C)c2[N+](=O)[O-])CC1 subject_of_test="transient receptor potential cation channel C4 beta (TRPC4), mouse" classification=inactive
molecule=Cc1cc(C)n(-c2nc(SCCN(C)C)c3c4c(sc3n2)CCCC4)n1 subject_of_test="transient receptor potential cation channel C4 beta (TRPC4), mouse" classification=inactive

---

Assay: calcium flux enhancement in mu-opioid HEK293 cells, confirmation, counter-screen for TRPC4 allosteric potentiator project, cell-based, HEK293 mu-opioid receptor line (AID 449724);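 also: HEK293 cells carrying mu-opioid receptor only with no TRPC4 channel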
Conditions: Fluo-4 calcium flux, at 10 µM, compound added before EC20 DAMGO stimulus
Activity calls are given as the source filed them.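 How the source made its calls: active means calcium signal rise more than 3 SD above the low-dose agonist control mean, in both duplicate plates and the primary screen; inactive means the rest.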
Possible outcomes: 1 = active, -1 = inactive

molecule=COc1cc(OC)c(CN2CCC(Cc3ccccc3)CC2)cc1Br classification=-1
molecule=COc1ccc(C(=O)NNC(=S)NC(=O)c2ccccc2)cc1 classification=-1
molecule="CCCCC(c1nnnn1CC1CCCO1)N1CCN(Cc2ccccc2)CC1 (stereo not given)" classification=-1
molecule=CCOC(=O)C1(CCOc2ccccc2)CCN(Cc2ccc(NC(C)=O)cc2)CC1 classification=-1
molecule=O=C1/C(=C\c2cc(Cl)c(O)c(Cl)c2)SC(=S)N1Cc1ccccc1 classification=1
molecule=O=C(NNC(=S)NC(=O)c1ccccc1Cl)c1cccc([N+](=O)[O-])c1 classification=-1
molecule=O=C(NCc1ccccc1)C1=C[C@H](c2ccc3c(c2)OCO3)C[C@H](OCc2ccc(CO)cc2)O1 classification=-1
molecule="O=C(c1sc2ccccc2c1Cl)N(Cc1ccco1)C1CCS(=O)(=O)C1 (stereo not given)" classification=-1
molecule="Cc1c(C(=O)N(Cc2cccs2)C2CCS(=O)(=O)C2)oc2ccccc12 (stereo not given)" classification=-1
molecule="CC1(c2ccc(Cl)cc2Cl)OCC(Cn2ccnc2)O1 (stereo not given)" classification=-1
molecule=COc1ccccc1CCC(=O)Nc1cc(S(=O)(=O)N2CCCCC2)ccc1N1CCN(C)CC1 classification=-1
molecule=CCN(c1ccccc1)S(=O)(=O)c1ccc(C(=O)N(CCCN(C)C)c2nc3cc4c(cc3s2)OCO4)cc1 classification=-1
molecule=CN(C)/C=C1\C(=O)N(c2ccc([N+](=O)[O-])cc2)N=C1c1ccccc1 classification=-1
molecule="O=C(NCc1cccnc1)C1CCCN(Cc2cnn(-c3ccccc3)c2-n2cccc2)C1 (stereo not given)" classification=-1
molecule=CCCOc1ccc(C(=O)NNC(=S)NC(=O)c2cccs2)cc1 classification=-1
molecule=COc1ccc(-c2nn(-c3ccccc3)cc2CNCc2cccnc2)c(F)c1 classification=-1
molecule="CC1CC(C)CN(CCCNC(=O)c2nn(C)c3c2CS(=O)(=O)c2ccccc2-3)C1 (stereo not given)" classification=-1
molecule=Cc1cc(NC(=O)c2cnn3cccnc23)nn1CC(=O)Nc1cccnc1 classification=-1
molecule=COC(=O)[C@@]1(Cc2ccc(F)cc2)[C@H]2c3cc(C(=O)N(C)C)n(CCc4ccccn4)c3C[C@H]2CN1C(=O)c1ccccc1 classification=-1
molecule="CC1CCCCN1S(=O)(=O)c1ccc(C(=O)N(CCCN(C)C)c2nc3ccc(Br)cc3s2)cc1 (stereo not given)" classification=-1
